Each entry below lists one item and its recorded fraction unbound value.
protocol_notes: Fraction unbound in human plasma
Assay type: ADME, cell-free
measure_name: fraction unbound

{"compound": "Cc1nnc(N2C[C@H]3CC[C@@H](C2)[C@@H]3Nc2nc3c(OC(C)C(F)(F)F)ccc(C(F)(F)F)n3n2)o1 (stereo not given in full)", "measure_name": "fraction unbound", "recorded_measurement": 0.028}
{"compound": "Cc1nsc(N2C[C@H]3CC[C@@H](C2)[C@@H]3Nc2nc3c(OCCC(F)(F)F)cccn3n2)n1", "measure_name": "fraction unbound", "recorded_measurement": 0.03}
{"compound": "Cc1nnc(N2C[C@H]3CC[C@@H](C2)[C@@H]3Nc2nc3c(O[C@@H](C)C(F)(F)F)ccc(C(F)(F)F)n3n2)o1", "measure_name": "fraction unbound", "recorded_measurement": 0.05}
{"compound": "Cc1nsc(N2C[C@H]3CC[C@@H](C2)[C@@H]3Nc2nc3c(OCC(F)(F)F)cccn3n2)n1", "measure_name": "fraction unbound", "recorded_measurement": 0.028}
{"compound": "Cc1nsc(N2C[C@H]3CC[C@@H](C2)[C@@H]3Nc2nc3c(O[C@@H](C)C(F)(F)F)cccn3n2)n1", "measure_name": "fraction unbound", "recorded_measurement": 0.028}
{"compound": "COc1cccn2nc(N[C@@H]3[C@@H]4CC[C@H]3CN(c3nc(C)ns3)C4)nc12", "measure_name": "fraction unbound", "recorded_measurement": 0.12}
{"compound": "Cc1cc(N2C[C@H]3CC[C@@H](C2)[C@@H]3Nc2nc3c(O[C@@H](C)C(F)(F)F)cccn3n2)sn1", "measure_name": "fraction unbound", "recorded_measurement": 0.01}
{"compound": "Cc1cc(N2C[C@H]3CC[C@@H](C2)[C@@H]3Nc2nc3c(OCC(F)F)ccc(C(F)(F)F)n3n2)ncn1", "measure_name": "fraction unbound", "recorded_measurement": 0.028}
{"compound": "FC(F)(F)COc1cccn2nc(N[C@@H]3[C@@H]4CC[C@H]3CN(c3ccnc(C(F)(F)F)c3)C4)nc12", "measure_name": "fraction unbound", "recorded_measurement": 0.012}
{"compound": "Cc1nsc(N2CC3CCC(C2)C3Nc2nc3c(-c4ccc(F)c(F)c4F)cccn3n2)n1 (stereo not given)", "measure_name": "fraction unbound", "recorded_measurement": 0.004}

Sourced from ChEMBL document CHEMBL4619803
